Data provenance: paper PMC4552634

Quick list: % Inhibition per entry.
System: P. falciparum stage V gametocytes
Parameters: BacTiter-Glo ATP luminescence viability of purified stage V gametocytes in 384-well plates, per cent inhibition versus DMSO
recorded.conditions: 48 h, 5 µM; inhibitor
In all, about 13,000 compounds went through this assay and about 3,200 (25%) showed an effect of 50% or more. This is one part of the list.
measured.attribute: % Inhibition (%)

{"columns": ["molecule", "measured.attribute", "reported"],
 "data": [
  ["CN(C)CCCOc1cccc(NC(=O)Nc2ccc(-c3ccccc3)cc2)c1 [TCMDC-139539]", "% Inhibition", -65.39],
  ["c1cc(CN2CCCCC2)cc(-c2cccc(-c3nc4ccccc4[nH]3)c2)c1 [TCMDC-133914]", "% Inhibition", -55.81],
  ["COc1ccc(Nc2nc(NN=Cc3cc(Br)c(O)cc3O)nc(Nc3ccc([N+](=O)[O-])cc3)n2)cc1 [TCMDC-124181]", "% Inhibition", 28.04],
  ["Brc1cc2c(cc1C=NNc1nc(Nc3ccccc3)nc(Nc3ccccc3)n1)OCO2 [TCMDC-124195]", "% Inhibition", 14.96],
  ["CN(C)CCCNCc1ccc(-c2ccc(CNCCOc3ccccc3)cc2)cc1 [TCMDC-141457]", "% Inhibition", 91.94],
  ["Oc1ccc2ccccc2c1C=NNc1nc(Nc2ccccc2)nc(Nc2ccccc2)n1 [TCMDC-125790]", "% Inhibition", 78.83],
  ["c1cc(CN2CCN(CCN3CCOCC3)CC2)cc(-c2csc(-c3nc4ccccc4[nH]3)c2)c1 [TCMDC-133921]", "% Inhibition", 11.49],
  ["O=C(Nc1ccc(Cl)cc1)c1ccc(CN2CCCN(Cc3cccc(O)c3)CC2)cc1 [TCMDC-136406]", "% Inhibition", -22.52],
  ["COc1ccc2nc(C)cc(Nc3ccc(Oc4ccc5ccccc5c4Cl)c(Cl)c3)c2c1 [TCMDC-124244]", "% Inhibition", 45.95],
  ["COc1c(C=NNc2nc(Nc3ccccc3)nc(Nc3ccccc3)n2)ccc(Br)c1O [TCMDC-125800]", "% Inhibition", 79.97],
  ["c1cc(CN2CCCCC2)cc(-c2ccc(-c3nc4ccccc4[nH]3)cc2)c1 [TCMDC-133890]", "% Inhibition", -8.246],
  ["CCCNC(=O)c1cncc(-c2ccc(CNCCCc3ccccc3)cc2)c1 [TCMDC-134248]", "% Inhibition", 11.91],
  ["Cc1cc2nc(-c3ccc(SCC(=O)Nc4ccc5c(c4)OCCO5)nc3)[nH]c2cc1C [TCMDC-125353]", "% Inhibition", 21.88],
  ["CC[C@H](C)CNC(=O)c1cncc(-c2ccc(CNCCOc3ccccc3)cc2)c1 [TCMDC-134239]", "% Inhibition", -0.3321],
  ["NC1CCN(Cc2cccc(-c3csc(-c4nc5ccccc5[nH]4)c3)c2)C1 (centres unmarked) [TCMDC-133876]", "% Inhibition", 10.66],
  ["Cc1ccc(Oc2ccc(NC(=O)CNc3ccccc3N3CCCC3=O)cc2)cc1 [TCMDC-125245]", "% Inhibition", -23.96],
  ["c1cc(CN2CCC(CCN3CCCCC3)CC2)cc(-c2csc(-c3nc4ccccc4[nH]3)c2)c1 [TCMDC-133919]", "% Inhibition", 95.43]
]}
